# system name: General transcription and DNA repair factor IIH helicase subunit XPD (Homo sapiens, UniProt P18074)
# Sequence (P18074 whole entry): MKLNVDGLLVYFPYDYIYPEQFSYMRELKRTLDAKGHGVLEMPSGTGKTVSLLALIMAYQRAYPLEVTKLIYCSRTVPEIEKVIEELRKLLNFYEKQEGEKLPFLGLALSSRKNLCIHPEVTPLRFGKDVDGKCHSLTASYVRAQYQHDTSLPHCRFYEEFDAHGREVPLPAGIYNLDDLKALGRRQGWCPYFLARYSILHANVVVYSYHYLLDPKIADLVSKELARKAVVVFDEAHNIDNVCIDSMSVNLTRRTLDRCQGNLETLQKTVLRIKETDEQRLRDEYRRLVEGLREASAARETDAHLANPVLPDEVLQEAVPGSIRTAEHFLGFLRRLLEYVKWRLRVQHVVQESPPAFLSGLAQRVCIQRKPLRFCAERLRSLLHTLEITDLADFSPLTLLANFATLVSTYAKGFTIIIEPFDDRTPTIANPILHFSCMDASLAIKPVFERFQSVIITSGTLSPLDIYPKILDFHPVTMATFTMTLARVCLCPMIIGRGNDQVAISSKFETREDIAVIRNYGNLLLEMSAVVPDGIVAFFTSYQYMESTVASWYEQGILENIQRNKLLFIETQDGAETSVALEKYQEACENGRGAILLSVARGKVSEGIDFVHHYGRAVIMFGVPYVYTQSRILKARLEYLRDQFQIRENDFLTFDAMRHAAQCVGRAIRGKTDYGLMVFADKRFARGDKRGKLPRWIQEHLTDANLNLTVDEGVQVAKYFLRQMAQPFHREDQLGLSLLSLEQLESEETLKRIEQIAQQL
# recorded conditions: read-out: Kd apparent; k-562, colo 205, sk-n-be(2) and mv-4-11
Active and inactive are the calls of the source. No stated cut-off is given here; in the data, actives have a measured Kd and inactives only a lower limit.
Give your call using only these classes: class 1 = active, class 0 = inactive

Some solved entries appear below for comparison.
| compound | class assignment |
| --- | --- |
| CCN1CCN(Cc2ccc(Nc3ncc(F)c(-c4cc(F)c5nc(C)n(C(C)C)c5c4)n3)nc2)CC1 | class 0 |
| C#Cc1cccc(Nc2ncnc3cc4c(cc23)OCCOCCOCCO4)c1 | class 0 |
| COc1ccc(-c2ccc3ncc4c(c3c2)n(-c2ccc(N3CCNCC3)c(C(F)(F)F)c2)c(=O)n4C)cn1 [BGT-226 FREE BASE] | class 0 |

Assay outcome for Cc1cc(C(=O)Nc2cc(Oc3ccc4nc(NC(=O)C5CC5)cn4n3)ccc2C)n(C)n1 : what was it?
class 0

Another: Cc1cc(Nc2nc(N[C@@H](C)c3ncc(F)cn3)ncc2Cl)n[nH]1
class 0
